Tested target: NHERF4_2, Q86UT5
Sequence (Q86UT5 220-308): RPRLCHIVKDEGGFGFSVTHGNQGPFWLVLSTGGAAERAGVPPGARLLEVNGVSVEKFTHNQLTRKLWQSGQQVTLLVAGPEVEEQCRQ
Assay: holdup assay
Set-up: key: below the threshold = too weak to quantify, mostly under pKd 3.1 to 4
Details: plain residues with an end cap or a label only (N-terminal biotin on a linker: ado-ado)
Readout name: pKd

Binder | Value observed
RSSGGDDFWF [KCNV1, Q6PIU1] | below the threshold
PYSESDDDWC [CACNA1A, O00555] | below the threshold
ILRKSTTTTV [PRR16, Q569H4] | below the threshold
RDPPAEWTRV [PTPN18, Q99952] | below the threshold

Reference for the values: paper PMC9482650
